Target: Coagulation factor X (Homo sapiens, UniProt P00742)
Sequence (P00742 41-179 limits assumed): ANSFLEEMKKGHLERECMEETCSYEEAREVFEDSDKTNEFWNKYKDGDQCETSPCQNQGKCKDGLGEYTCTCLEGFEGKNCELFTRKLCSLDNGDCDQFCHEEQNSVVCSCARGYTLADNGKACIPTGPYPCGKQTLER
Sequence (P00742 235-488 limits assumed): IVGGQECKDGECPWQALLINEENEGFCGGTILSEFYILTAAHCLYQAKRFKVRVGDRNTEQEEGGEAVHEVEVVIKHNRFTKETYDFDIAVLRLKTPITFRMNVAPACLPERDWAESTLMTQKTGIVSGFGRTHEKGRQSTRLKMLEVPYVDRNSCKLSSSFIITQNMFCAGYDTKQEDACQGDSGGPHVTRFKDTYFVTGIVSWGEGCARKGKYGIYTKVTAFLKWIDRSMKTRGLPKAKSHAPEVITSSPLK
Test: Inhibition of coagulation factor X
RECORDED_ENDPOINT: Ki

# get_value(readout='Ki', item= N=C(N)Nc1ccc(NC(=O)c2cc3ccccc3c(I)c2O)cn1 )
68 µM

# get_value(readout='Ki', item= Cc1cc(Br)c(O)c(C(=O)Nc2ccc(NC(=N)N)cc2)c1 )
151 µM

# get_value(readout='Ki', item= [H]/N=C(/N)c1ccc(NC(=O)c2cc(C)cc(I)c2O)cc1Cl )
115 µM

# get_value(readout='Ki', item= Cc1cc(I)c(O)c(C(=O)Nc2ccc(NC(=N)N)cc2)c1 )
> 470 µM

# get_value(readout='Ki', item= NC(N)=Nc1ccc(NC(=O)c2ccccc2O)cc1 )
104 µM

# get_value(readout='Ki', item= Cc1ccc(C(=O)Nc2ccc(C(=N)N)cc2)c(O)c1 )
2.3 µM

# get_value(readout='Ki', item= CC(C)Oc1c(O)c(C(=O)Nc2ccc(NC(=N)N)cc2)cc2ccccc12 )
240 µM

# get_value(readout='Ki', item= Cc1cc(Br)c(O)c(C(=O)Nc2ccc(C(=N)N)cc2)c1 )
0.44 µM

# get_value(readout='Ki', item= N=C(N)Nc1ccc(NC(=O)c2cc([N+](=O)[O-])ccc2O)cc1 )
> 470 µM

# get_value(readout='Ki', item= N=C(N)Nc1ccc(NC(=O)c2cc3ccccc3c(Br)c2O)cc1 )
> 470 µM

# get_value(readout='Ki', item= COc1ccc(O)c(C(=O)Nc2ccc(NC(=N)N)cc2)c1 )
> 470 µM

# get_value(readout='Ki', item= Cc1ccc(C(=O)Nc2ccc(NC(=N)N)cc2)c(O)c1 )
> 470 µM

# get_value(readout='Ki', item= NC(N)=Nc1ccc(NC(=O)c2ccc(Cl)cc2O)cc1 )
> 470 µM

# get_value(readout='Ki', item= N=C(N)c1ccc(NC(=O)c2cccc(-c3ccccc3)c2O)cc1 )
188 µM

# get_value(readout='Ki', item= Cc1cccc(C(=O)Nc2ccc(NC(=N)N)cc2)c1O )
350 µM

# get_value(readout='Ki', item= Cc1cc(I)c(O)c(C(=O)Nc2ccc(C(=N)N)cc2)c1 )
0.46 µM

# get_value(readout='Ki', item= NC(N)=Nc1ccc(NC(=O)c2cccc(-c3ccccc3)c2O)cc1 )
> 470 µM

# get_value(readout='Ki', item= NC(N)=Nc1ccc(NC(=O)c2cc(Br)ccc2O)cc1 )
> 470 µM

# get_value(readout='Ki', item= N=C(N)Nc1ccc(NC(=O)c2cc3ccccc3c(I)c2O)cc1 )
> 470 µM

# get_value(readout='Ki', item= NC(N)=Nc1ccc(NC(=O)c2cccc(Cl)c2O)cc1 )
470 µM

# get_value(readout='Ki', item= CCOc1ccc(C(=O)Nc2ccc(NC(=N)N)cc2)c(O)c1 )
> 470 µM

# get_value(readout='Ki', item= N=C(N)Nc1ccc(NC(=O)c2cc3ccccc3c(Br)c2O)cn1 )
235 µM

# get_value(readout='Ki', item= N=C(N)c1ccc(NC(=O)c2cccc(Cl)c2O)cc1 )
1 µM

# get_value(readout='Ki', item= Cc1ccc(O)c(C(=O)Nc2ccc(NC(=N)N)cc2)c1 )
> 470 µM

# get_value(readout='Ki', item= Cc1cccc(C(=O)Nc2ccc(C(=N)N)cc2)c1O )
5.7 µM

# get_value(readout='Ki', item= Cc1cc(I)c(O)c(C(=O)Nc2ccc(C(=N)N)c(F)c2)c1 )
0.52 µM
